Would you kindly list GI50 for each of these compounds?
Tested on: HS 578T
Assay: NCI60 five-dose screen, Breast Cancer
Assay type: cell-based
Conditions: Homo sapiens; HS 578T, Breast Cancer; five-dose screen; read-out: GI50
All answers are understood in nM, so give the number only.

For this compound ( "CC[C@]12C=CCN3CC[C@@]4(c5ccc(OC)cc5N(C)[C@H]4[C@@](O)(C(=O)OC)[C@@H]1OC(=O)CCC(=O)N1CCN(C(c4ccc(F)cc4)c4ccc(F)cc4)CC1)[C@@H]32" ), measured GI50 is 1740

For this compound ( "CC[C@]12C=CCN3CC[C@@]4(c5ccc(OC)cc5N(C)[C@H]4[C@@](O)(C(=O)OC)[C@@H]1OC(=O)CCCN1CCN(c4ccc(C(F)(F)F)cc4)CC1)[C@@H]32" ), measured GI50 is 2820

For this compound ( "CC[C@]12C=CCN3CC[C@@]4(c5ccc(OC)cc5N(C)[C@H]4[C@@](O)(C(=O)OC)[C@@H]1OC(=O)CCCN1CCN(Cc4ccc(C(F)(F)F)cc4)CC1)[C@@H]32" ), measured GI50 is 1510
